System: P. aeruginosa CDC-0110
assay details: Broth microdilution MIC in iron-depleted CAMHB (IDM)
Format: cell-based
cond: Pseudomonas aeruginosa, CDC0110, read-out: Minimum Inhibitory Concentration, P. aeruginosa CDC-0110
assay endpoint: MIC

{"compound": "CCN1CCN(C(=O)NC(C(=O)N[C@H]2Cc3ccc(F)c(C(=O)O)c3OB2O)c2c(F)cc(O)c(O)c2F)C(=O)C1=O (stereo partly drawn) [Example 36]", "MIC": "0.5 to 1 µg/mL"}
{"compound": "NCCN1CCN(C(=O)N[C@@H](C(=O)N[C@H]2Cc3ccc(F)c(C(=O)O)c3OB2O)c2c(F)c(F)c(O)c(O)c2Cl)C(=O)C1=O [Example 226]", "MIC": "0.5 to 1 µg/mL"}

Asked: API: value(readout= MIC, system= P. aeruginosa CDC-0110, query= NCCCN1CCN(C(=O)N[C@@H](C(=O)N[C@H]2Cc3ccc(F)c(C(=O)O)c3OB2O)c2cc(F)c(O)c(O)c2Cl)C(=O)C1=O (single isomer, unassigned) [Example 180] )
Given back: 0.25 µg/mL

----------
assay target: E. coli K12 PBP1b (Escherichia coli, UniProt P02919)
Construct: made in house
Sequence (P02919 whole entry): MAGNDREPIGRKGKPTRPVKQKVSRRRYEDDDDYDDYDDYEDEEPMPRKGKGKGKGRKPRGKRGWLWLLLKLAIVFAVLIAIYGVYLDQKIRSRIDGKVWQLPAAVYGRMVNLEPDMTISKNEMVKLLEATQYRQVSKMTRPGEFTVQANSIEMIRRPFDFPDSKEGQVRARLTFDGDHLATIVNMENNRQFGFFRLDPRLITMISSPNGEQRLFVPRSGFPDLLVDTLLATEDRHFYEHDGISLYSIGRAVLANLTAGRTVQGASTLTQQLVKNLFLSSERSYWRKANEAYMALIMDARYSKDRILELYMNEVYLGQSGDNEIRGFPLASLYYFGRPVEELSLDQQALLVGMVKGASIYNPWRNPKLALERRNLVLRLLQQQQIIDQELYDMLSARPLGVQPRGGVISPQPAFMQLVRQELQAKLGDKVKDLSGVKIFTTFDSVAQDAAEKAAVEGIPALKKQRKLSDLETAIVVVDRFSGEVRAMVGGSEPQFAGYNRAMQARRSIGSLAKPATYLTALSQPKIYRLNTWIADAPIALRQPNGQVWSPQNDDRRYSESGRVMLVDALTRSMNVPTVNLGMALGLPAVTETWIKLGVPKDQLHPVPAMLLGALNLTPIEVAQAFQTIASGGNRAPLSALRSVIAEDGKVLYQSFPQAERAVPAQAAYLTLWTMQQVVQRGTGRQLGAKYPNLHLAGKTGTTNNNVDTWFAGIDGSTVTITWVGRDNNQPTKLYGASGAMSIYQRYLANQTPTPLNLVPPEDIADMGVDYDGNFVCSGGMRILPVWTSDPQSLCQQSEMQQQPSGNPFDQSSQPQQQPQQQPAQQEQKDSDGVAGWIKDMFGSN
assay details: Radioligand competition binding assay with 14C-labeled boronic acid probe, E. coli PBP1b
cond: PBP1a/PBP1b at 0.1 μM, Compound A at 20 μM; E. coli PBP1b; read-out: EC50 (the concentration of inhibitor required to reduce binding of Compound A by 50%)
assay endpoint: EC50

Asked: Give EC50 (E. coli K12 PBP1b (Escherichia coli, UniProt P02919)) of the following compound: CC1(C)S[C@@H]2[C@H](NC(=O)[C@H](N)c3ccccc3)C(=O)N2[C@H]1C(=O)O [ampicillin, reference compound]
Given back: < 500 nM

----------
Tested on: N. gonorrhoeae H041
assay details: Liquid broth MIC in Fastidious broth
Assay type: cell-based
cond: Neisseria gonorrhoeae, H041, read-out: Minimum Inhibitory Concentration, N. gonorrhoeae H041
assay endpoint: MIC

Field: example entries. Status: answers known.
{"molecule": "CCN1CCN(C(=O)NC(C(=O)N[C@H]2Cc3ccc(C=O)c(C(=O)O)c3OB2O)c2csc(N)n2)C(=O)C1=O (stereo partly shown)", "assay target": "N. gonorrhoeae H041", "MIC": "> 64 µg/mL"}
{"molecule": "NC1(CN2CCN(C(=O)NC(C(=O)N[C@H]3Cc4cccc(C(=O)O)c4OB3O)c3cccc(NS(N)(=O)=O)c3)C(=O)C2=O)CC1 (stereo partly shown)", "assay target": "N. gonorrhoeae H041", "MIC": "> 64 µg/mL"}
{"molecule": "NS(=O)(=O)NC(C(=O)N[C@H]1Cc2cccc(C(=O)O)c2OB1O)c1ccc(C(=O)O)c(F)c1 (stereo partly shown)", "assay target": "N. gonorrhoeae H041", "MIC": "> 64 µg/mL"}
{"molecule": "O=C(O)c1cccc2c1OB(O)[C@@H](NC(=O)C(NC(=O)N1CCNC1=O)c1c(F)cc(O)cc1F)C2 (stereo partly shown)", "assay target": "N. gonorrhoeae H041", "MIC": "> 64 µg/mL"}
{"molecule": "O=C(NC(C(=O)N[C@H]1Cc2ccc(F)c(C(=O)O)c2OB1O)c1ncc(O)cc1F)c1ccnc(F)c1 (stereo partly shown)", "assay target": "N. gonorrhoeae H041", "MIC": "> 64 µg/mL"}
{"molecule": "CCN1CCN(C(=O)N[C@@H](C(=O)N[C@H]2Cc3cccc(C(=O)O)c3OB2O)c2cc(F)c(C(=O)O)cc2Cl)C(=O)C1=O (single isomer, unassigned)", "assay target": "N. gonorrhoeae H041", "MIC": "16 to 32 µg/mL"}

Give MIC for each listed item.
1. CCN1CCN(C(=O)NC(C(=O)N[C@H]2Cc3cccc(C(=O)O)c3OB2O)c2cccc(S(N)(=O)=O)c2)C(=O)C1=O (stereo partly shown)
2. N[C@@H](C(=O)N[C@H]1Cc2ccc(F)c(C(=O)O)c2OB1O)c1ccc(OS(=O)(=O)F)cc1
3. CCN1CCN(C(=O)N[C@@H](C(=O)N[C@H]2Cc3cccc(C(=O)O)c3OB2O)c2ccc(C(=O)O)c(F)c2F)C(=O)C1=O (single isomer, unassigned)
4. CCN1CCN(C(=O)NC(C(=O)N[C@H]2Cc3cccc(C(=O)O)c3OB2O)c2cc(F)c(O)c(F)c2)C(=O)C1=O (stereo partly shown)

Given back:
1: 16 to 32 µg/mL; 2: > 64 µg/mL; 3: 1 to 2 µg/mL; 4: 16 to 32 µg/mL

----------
Please respond with reported MIC for every item in the list.
Test system: P. aeruginosa (ΔmexAB-oprM)
assay details: Broth microdilution MIC in iron-depleted CAMHB (IDM)
Type: cell-based
cond: Pseudomonas aeruginosa, read-out: Minimum Inhibitory Concentration, P. aeruginosa ΔmexAB-OprM

Solved entries:
{"molecule": "Nc1nc(/C(=N/OC[C@H](NC(=O)c2ccc(O)c(O)c2Cl)C(=O)O)C(=O)N[C@H]2Cc3cccc(C(=O)O)c3OB2O)cs1", "assay target": "P. aeruginosa (ΔmexAB-oprM)", "MIC": "0.5 to 1 mg/L"}
{"molecule": "CS(=O)(=O)N1CCN(C(=O)N[C@@H](C(=O)N[C@H]2Cc3ccc(F)c(C(=O)O)c3OB2O)c2c(F)cc(O)c(O)c2Cl)C1=O (single isomer, unassigned)", "assay target": "P. aeruginosa (ΔmexAB-oprM)", "MIC": "0.25 mg/L"}
{"molecule": "NC1(CN2CCN(C(=O)N[C@@H](C(=O)N[C@H]3Cc4ccc(F)c(C(=O)O)c4OB3O)c3cc(F)c(O)c(O)c3Cl)C(=O)C2=O)CC1 (single isomer, unassigned)", "assay target": "P. aeruginosa (ΔmexAB-oprM)", "MIC": "0.25 mg/L"}
{"molecule": "NCCCN1CCN(C(=O)N[C@H](C(=O)N[C@H]2Cc3ccc(F)c(C(=O)O)c3OB2O)c2ccc(O)c(O)c2Cl)C(=O)C1=O (single isomer, unassigned)", "assay target": "P. aeruginosa (ΔmexAB-oprM)", "MIC": "0.5 to 1 mg/L"}

# batch size: 3; output MIC per entry
1. O=C(NCCN1CCN(C(=O)NC(C(=O)N[C@H]2Cc3ccc(F)c(C(=O)O)c3OB2O)c2ncc(O)cc2F)C(=O)C1=O)c1c(F)cc(O)c(O)c1Cl (stereo partly shown)
2. CCN1CCN(C(=O)N[C@@H](C(=O)N[C@H]2Cc3ccc(F)c(C(=O)O)c3OB2O)c2ccc(O)c(O)c2)C(=O)C1=O
3. NC(C(=O)N[C@H]1Cc2ccc(F)c(C(=O)O)c2OB1O)c1c(F)cc(O)c(O)c1Cl (stereo partly shown)

Given back:
0.25 mg/L
0.25 mg/L
32 to 64 mg/L

----------
System: K. pneumoniae UMM producing SHV-5 and KPC-2
assay endpoint: MIC

Illustrative cases are given below, each with its answer.
{"compound": "NC1(CN2CCN(C(=O)N[C@H](C(=O)N[C@H]3Cc4cccc(C(=O)O)c4OB3O)c3c(F)cc(O)cc3F)C(=O)C2=O)CC1 (single isomer, unassigned)", "MIC": "32 to 64 µg/mL"}
{"compound": "NS(=O)(=O)Nc1cccc([C@@H](NC(=O)N2CCN(CC(F)(F)F)C(=O)C2=O)C(=O)N[C@H]2Cc3cccc(C(=O)O)c3OB2O)c1 (single isomer, unassigned)", "MIC": "32 to 64 µg/mL"}
{"compound": "C[C@H]1CN(CCF)C(=O)C(=O)N1C(=O)N[C@@H](C(=O)N[C@H]1Cc2cccc(C(=O)O)c2OB1O)c1ccc(O)c(F)c1F", "MIC": "< 0.25 µg/mL"}
{"compound": "NCCN1CCN(C(=O)N[C@@H](C(=O)N[C@H]2Cc3cccc(C(=O)O)c3OB2O)c2cc(F)c(O)c(F)c2F)C(=O)C1=O (single isomer, unassigned)", "MIC": "8 to 16 µg/mL"}
{"compound": "NC1(CN2CCN(C(=O)NC(C(=O)N[C@H]3Cc4cccc(C(=O)O)c4OB3O)c3cccc(NS(N)(=O)=O)c3)C(=O)C2=O)CC1 (some centres unmarked)", "MIC": "32 to 64 µg/mL"}
{"compound": "NC(=O)c1ccc(C(NC(=O)N2CCN(CCF)C(=O)C2=O)C(=O)N[C@H]2Cc3cccc(C(=O)O)c3OB2O)cc1O (some centres unmarked)", "MIC": "32 to 64 µg/mL"}
{"compound": "NCCCN1CCN(C(=O)N[C@@H](C(=O)N[C@H]2Cc3cccc(C(=O)O)c3OB2O)c2c(O)cc(O)cc2F)C(=O)C1=O (single isomer, unassigned)", "MIC": "8 to 16 µg/mL"}
{"compound": "CCN1CCN(C(=O)NC(C(=O)N[C@H]2Cc3cccc(C(=O)O)c3OB2O)c2cc(Cl)c(O)cc2F)C(=O)C1=O (some centres unmarked)", "MIC": "32 to 64 µg/mL"}

Hi! Can you tell me MIC for each of these compounds?
1. NC1(CN2CCN(C(=O)N[C@@H](C(=O)N[C@H]3Cc4cccc(C(=O)O)c4OB3O)c3cc(F)c(O)c(F)c3F)C(=O)C2=O)CC1 (single isomer, unassigned)
2. NCCN1CCN(C(=O)N[C@@H](C(=O)N[C@H]2Cc3cccc(C(=O)O)c3OB2O)c2ccc(O)cc2F)C(=O)C1=O (single isomer, unassigned)
3. O=C(O)c1c(F)ccc2c1OB(O)[C@@H](NC(=O)C(NC(=O)N1CCN(CCF)C(=O)C1=O)c1c(F)cc(O)cc1F)C2 (some centres unmarked)

Given back:
1. < 0.25 µg/mL
2. 32 to 64 µg/mL
3. 32 to 64 µg/mL
